Listed here are compounds together with their documented melting point.
OBSERVATION TYPE: melting point

[[record]]
compound = "O=C(CCN1CCOCC1)Nc1cc(-c2nnc(CCc3cccc(F)c3)o2)ccn1"
observation_type = "melting point"
recorded_value = "149 to 150 °C"

[[record]]
compound = "CCCc1c(OCCCCSCCC(=O)O)ccc(C(C)=O)c1O"
observation_type = "melting point"
recorded_value = "75 to 77 °C"

[[record]]
compound = "CC(C)(C)OC(=O)C[C@@H](NC(=O)/C=C/S(=O)(=O)c1ccccc1)C(=O)OC(C)(C)C"
observation_type = "melting point"
recorded_value = "168 to 169 °C"

[[record]]
compound = "CCOc1nn(-c2ccc(C(F)(F)F)cc2)cc1CCCOc1cccc(CC(=O)O)c1"
observation_type = "melting point"
recorded_value = "108 to 109 °C"

[[record]]
compound = "O=C(NCN1CCN(c2ccccc2Cl)CC1)c1ccccc1"
observation_type = "melting point"
recorded_value = "145 to 147 °C"

[[record]]
compound = "CCOC(=O)c1cc(Br)cc2c(=O)cc(-c3cccc(OCc4ccc5ccccc5c4)c3)oc12"
observation_type = "melting point"
recorded_value = "211 to 213 °C"

[[record]]
compound = "O=C(Cc1ccccn1)OC(=O)Cc1ccccn1"
observation_type = "melting point"
recorded_value = "105 to 106 °C"

[[record]]
compound = "CC(C)(C)OC(=O)NCC#Cc1cccnc1"
observation_type = "melting point"
recorded_value = "74 to 78 °C"

[[record]]
compound = "CC=C(C)c1c(-c2ccc(S(C)(=O)=O)cc2)cnn(CC(F)(F)F)c1=O"
observation_type = "melting point"
recorded_value = "175 to 180 °C"

[[record]]
compound = "CN(C)c1ccc(N2C(=O)C3Cc4[nH]cnc4CN3C2=S)cc1 (configuration not stated)"
observation_type = "melting point"
recorded_value = "185 to 200 °C"

[[record]]
compound = "O=C(Nc1cccc2[nH]ccc12)c1ccc(Cl)cc1OCC1CO1 (configuration not stated)"
observation_type = "melting point"
recorded_value = "194 °C"

[[record]]
compound = "CC(c1cc(C(C)(C)C#N)cc(C(C)(C)C#N)c1)n1ccnc1 (configuration not stated)"
observation_type = "melting point"
recorded_value = "77 to 80 °C"

[[record]]
compound = "COC(=O)c1c(S(N)(=O)=O)c(C)nn1C"
observation_type = "melting point"
recorded_value = "174 to 176 °C"

[[record]]
compound = "CCC(C)NC(=O)OC1c2ccccc2C(=O)N1c1ccc2ccc(Cl)nc2n1 (configuration not stated)"
observation_type = "melting point"
recorded_value = "220 to 222 °C"

[[record]]
compound = "N#CN1C2CCC1CC(c1n[nH]c3ccccc13)C2 (configuration not stated)"
observation_type = "melting point"
recorded_value = "201 to 202 °C"

[[record]]
compound = "Oc1ccc(-c2nc3cc(O)cc(-c4ccco4)c3o2)cc1"
observation_type = "melting point"
recorded_value = "120 to 121 °C"

[[record]]
compound = "CCOC(=O)c1conc1-c1ccc(-c2ccccc2)cc1"
observation_type = "melting point"
recorded_value = "81 to 82 °C"


###

Quick list: melting point per entry.
OBSERVATION TYPE: melting point

[[record]]
molecule = "COc1ccc(Cl)cc1-c1c(N)c(=O)[nH]c2c(C(F)(F)F)cccc12"
recorded_value = "265 to 266 °C"

[[record]]
molecule = "COc1nc2cc(Br)c(Br)c(NS(C)(=O)=O)c2nc1OC"
recorded_value = "186 to 187 °C"

[[record]]
molecule = "COc1ccc(NN=C2C(=O)Nc3ccc(C4=NNC(=O)SC4C)cc32)cc1 (centres undefined)"
recorded_value = "273 °C"

[[record]]
molecule = "CCC1(Cl)Cc2cc(OCCCC(=O)O)c(Cl)c(Cl)c2C1=O (centres undefined)"
recorded_value = "123 to 124 °C"

[[record]]
molecule = "CCN(CC)CCOc1ccc(Nc2nccc(-c3cccnc3)n2)cc1"
recorded_value = "87 to 89 °C"

[[record]]
molecule = "CC(C)(C1OCCO1)C(O)(COc1cccc2ccccc12)Cn1ccnc1 (centres undefined)"
recorded_value = "126 °C"

[[record]]
molecule = "CCCN(CCC)[C@H]1COc2c(F)ccc(C(=O)NC)c2C1"
recorded_value = "72 to 73 °C"

[[record]]
molecule = "COc1c(NC(=O)Nc2ccc(Oc3ccoc(=O)c3)c3ccccc23)cc(C(C)(C)C)cc1NS(C)(=O)=O"
recorded_value = "185 to 187 °C"

[[record]]
molecule = "CCCCCCCCC#Cc1ccc2nc(C=O)ccc2c1"
recorded_value = "46.5 to 47.5 °C"

[[record]]
molecule = "CCCCCCN1C(=O)C(=O)c2cc(SCCCc3ccc(C(=O)O)cc3)ccc21"
recorded_value = "150 to 152 °C"

[[record]]
molecule = "CCCNC(=O)Nc1ccc(-c2cc3[nH]c(=O)[nH]c3nc2C)cc1"
recorded_value = "> 300 °C"

[[record]]
molecule = "O=C(Nc1cc(C(F)(F)F)cc(C(F)(F)F)c1)Nc1cc(C(F)(F)F)ccc1Oc1ccccc1C(=O)O"
recorded_value = "229 to 231 °C"

[[record]]
molecule = "CC(C)c1ccc(N(Cc2ccc(O)cc2)C(=O)C2CCCc3ccccc32)cc1 (centres undefined)"
recorded_value = "156 °C"

[[record]]
molecule = "N#Cc1c(-c2ccccc2)c(Cl)n2c1CNCC2"
recorded_value = "128 to 130 °C"


###

OBSERVATION TYPE: melting point

[[record]]
compound = "COC(=O)c1cccc(-c2c(C#N)nn(-c3c(Cl)cc(C(F)(F)F)cc3Cl)c2N)c1"
observation_type = "melting point"
recorded_value = "214 to 216 °C"

[[record]]
compound = "CCCCCS(=O)(=O)NC(=O)/C=C/c1ccc(OCCCS(C)(=O)=O)cc1Oc1ncc(C(F)(F)F)cc1Cl"
observation_type = "melting point"
recorded_value = "194 to 196 °C"

[[record]]
compound = "CC12CCC(O)CC1CCC1C2CCC2(C)C(C(=O)CSc3ccncc3)CCC12 (stereo not drawn)"
observation_type = "melting point"
recorded_value = "154 to 156 °C"

[[record]]
compound = "CCCCc1nc(SCCO)c(C(=O)O)n1Cc1ccc(-c2ccccc2C(=O)O)cc1"
observation_type = "melting point"
recorded_value = "194 °C"

[[record]]
compound = "Cn1c(C(F)(F)F)cc(=O)n(-c2ccc(Cl)cc2F)c1=O"
observation_type = "melting point"
recorded_value = "114 to 116 °C"

[[record]]
compound = "c1csc(OCCOc2ccc3ccccc3c2)c1"
observation_type = "melting point"
recorded_value = "129 to 130 °C"

[[record]]
compound = "Nc1ncccc1C(=O)NCC1CCN(C[C@H]2COc3cccc(C(F)(F)F)c3O2)CC1"
observation_type = "melting point"
recorded_value = "101 to 103 °C"

[[record]]
compound = "C#CC1(O)CCC2(C)C(CCC3C2CCC2(C)C(C(=O)CSCCO)CCC32)C1 (stereo not drawn)"
observation_type = "melting point"
recorded_value = "122 to 126 °C"

[[record]]
compound = "CCCOc1ccc(S(=O)(=O)C(C)(C)C)cc1C(N)=O"
observation_type = "melting point"
recorded_value = "215 to 218 °C"

[[record]]
compound = "Cc1cc(Nc2ccc(S(F)(F)(F)(F)F)cc2)c(S(C)(=O)=O)cc1C(=O)O"
observation_type = "melting point"
recorded_value = "106 to 109 °C"

[[record]]
compound = "COc1ccccc1[C@H](C)C(=O)O"
observation_type = "melting point"
recorded_value = "102 °C"

[[record]]
compound = "CCCCNC(=O)c1c(N)cc(Cl)cc1Cl"
observation_type = "melting point"
recorded_value = "92 to 98 °C"

[[record]]
compound = "CCOc1ccc(S(=O)(=O)N2CCN(C)CC2)cc1C=O"
observation_type = "melting point"
recorded_value = "107 to 108 °C"

[[record]]
compound = "CSC1=CC2=CN(SC)NN2C(SC)=N1"
observation_type = "melting point"
recorded_value = "165 to 167 °C"

[[record]]
compound = "N#Cc1c[nH]c2ncnc(N3CCCCC3)c12"
observation_type = "melting point"
recorded_value = "209 to 211 °C"

[[record]]
compound = "CCOC(Cc1ccc(OCCOC2c3ccccc3CCc3ccccc32)cc1)C(=O)O (stereo not drawn)"
observation_type = "melting point"
recorded_value = "148 to 150 °C"

[[record]]
compound = "CCCCCCCCCCOc1cc(O)cc(OCCCCCCCCCC)c1"
observation_type = "melting point"
recorded_value = "48 to 50 °C"

[[record]]
compound = "COc1ccc(C(=O)Nc2nc(-c3cccc(C#N)c3)c(-n3cncn3)s2)cc1"
observation_type = "melting point"
recorded_value = "292 to 294 °C"


###

OBSERVATION TYPE: melting point

[[record]]
compound = "CCOCc1cc(CCCOc2c(C)cc(-c3noc(C(F)(F)F)n3)cc2C)on1"
recorded_value = "24 to 25 °C"

[[record]]
compound = "O=C(O)C(F)c1cc(F)cc(F)c1 (stereo not given)"
recorded_value = "90 to 110 °C"

[[record]]
compound = "CC(C)c1cccc(C(C)C)c1NC(=O)NC1CCc2ccccc2C1 (stereo not given)"
recorded_value = "214 to 215 °C"

[[record]]
compound = "CCOC(=O)P(=O)(O)C(=O)OCC"
recorded_value = "150 to 155 °C"

[[record]]
compound = "COC(=O)c1cc(-c2ccc(OC)c(OC)c2)nn(CC(C)C)c1=O"
recorded_value = "104 to 106 °C"

[[record]]
compound = "O=C(Nc1cccc2c1C(=O)c1c-2n[nH]c1-c1ccc(C(=O)N2CCN(CC3CC3)CC2)s1)NN1CCOCC1"
recorded_value = "211 to 212 °C"

[[record]]
compound = "COc1cc(N2C(=O)N3CCCCC3C2O)c(F)cc1Cl (stereo not given)"
recorded_value = "155 to 157 °C"

[[record]]
compound = "CCN(CC)c1ccc2nc3c4ccc(Br)cc4c(=Nc4ccncc4)cc-3oc2c1"
recorded_value = "269 to 271 °C"

[[record]]
compound = "CN1Cc2c(C(=O)NN)ncn2-c2ccc(F)c(Cl)c2C1=O"
recorded_value = "308 to 310 °C"

[[record]]
compound = "CC(=O)c1c(O)c(C(C)=O)c(C(C)=O)c2c1Oc1cc(O)ccc1N2"
recorded_value = "208 °C"

[[record]]
compound = "COc1ncc(F)c2n[nH]c(=S)n12"
recorded_value = "166 °C"

[[record]]
compound = "CC(C)CC(N=O)C(=O)NC(CC(C)C)C(=O)O (stereo not given)"
recorded_value = "134 to 139 °C"

[[record]]
compound = "O=C(Nc1ccc(-n2nc(C(F)(F)F)cc2C(F)(F)F)cc1)c1cccc(F)c1"
recorded_value = "148 to 151 °C"

[[record]]
compound = "CCCCc1nc(Cl)c(CC(Cc2ccccc2)C(=O)O)n1Cc1ccccc1Cl (stereo not given)"
recorded_value = "138 to 139 °C"

[[record]]
compound = "CCOc1nsc(S(C)(=O)=O)c1S(C)(=O)=O"
recorded_value = "158 to 160 °C"

[[record]]
compound = "Cc1cccc(C(=O)Nc2nc(=O)c3ccccc3[nH]2)c1"
recorded_value = "211 to 213 °C"

[[record]]
compound = "CN1CCN(c2cccc3ccc(Nc4ncccc4[N+](=O)[O-])cc23)CC1"
recorded_value = "128 to 129 °C"

[[record]]
compound = "CCOC(=O)COc1ccc([N+](=O)[O-])cc1"
recorded_value = "75 to 76 °C"

[[record]]
compound = "N#Cc1ccc(N2CCC(CC(=O)O)CC2)c2ccccc12"
recorded_value = "195 to 196 °C"

[[record]]
compound = "CCC(C(C)=CC(CNC(=O)c1nc(C)[nH]c1C)=NO)[N+](=O)[O-] (stereo not given)"
recorded_value = "140 to 141 °C"

[[record]]
compound = "CC(=O)Nc1nc(CCc2ccc(N)cc2)c(C(=O)NCc2ccc(C(F)(F)F)cc2)s1"
recorded_value = "199 to 201 °C"

[[record]]
compound = "CSC1=Nc2ccccc2N2CCN(c3ccccc3)CCN12"
recorded_value = "125 to 127 °C"

[[record]]
compound = "O=[N+]([O-])c1ccc2c(c1)OC(CC(F)(F)F)(C(F)(F)F)O2 (stereo not given)"
recorded_value = "87 to 88 °C"

[[record]]
compound = "O=C(O)CC(Cc1c[nH]c2ccccc12)C(=O)O (stereo not given)"
recorded_value = "144 to 145 °C"

[[record]]
compound = "COc1ccc(C(=O)NCc2ccccc2)c2c1oc1ccc(NC(C)=O)cc12"
recorded_value = "264 to 265 °C"

[[record]]
compound = "CCOc1cc2c(cc1OCC)C(C(C#N)SCCC(=O)O)=NCC2 (stereo not given)"
recorded_value = "106 to 108 °C"

[[record]]
compound = "CC(C)(C)OC(=O)CNS(=O)(=O)c1ccc(N2CCC(NC[C@H](O)c3ccc(O)c(NS(C)(=O)=O)c3)CC2)cc1"
recorded_value = "113 to 115 °C"

[[record]]
compound = "O=C1COc2ccc(C3=Cc4ccc(NCCO)cc4SC3c3ccccc3)cc2N1 (stereo not given)"
recorded_value = "201 to 202 °C"

[[record]]
compound = "COc1ccc(C(=O)Nc2c(Cl)cncc2Cl)c2c1OC(C)(C)C=C2"
recorded_value = "174 to 178 °C"

[[record]]
compound = "CCC(CC)c1ccc(OC)c2nc(Oc3c(C)cc(Cl)cc3Cl)n(C)c12"
recorded_value = "130 to 131 °C"

[[record]]
compound = "Cc1cccn2c(=O)cc(/C=C/c3ccccc3)nc12"
recorded_value = "150 to 152 °C"

[[record]]
compound = "Cc1cc(C23CC4CC(CC(C4)C2)C3)ccc1NC(=O)c1cc([N+](=O)[O-])ccc1Br"
recorded_value = "229 °C"

[[record]]
compound = "O=C(CCl)Nc1ccccc1C1C=CCC1 (stereo not given)"
recorded_value = "101 to 102 °C"

[[record]]
compound = "CCOC(=O)c1ccc(Cl)nc1NCc1ccc(OC)c(Cl)c1"
recorded_value = "108 to 112 °C"

[[record]]
compound = "CC#CCOc1ccc(S(=O)(=O)C2(C(=O)O)CCN(Cc3ccc(C)cc3)CC2)cc1"
recorded_value = "188 °C"

